Kindly state kon for each of the entries shown.
biological target: T1, mature human TGF-β1 (human, UniProt P01137 279-390); test: KinExA 3000, solution phase, antigen-coupled beads
T1 construct: Bought protein (R&D Systems, Cat # 240-B/CF); also called TGF Beta 1; TGF-b1
T1 sequence (P01137 279-390 limits assumed): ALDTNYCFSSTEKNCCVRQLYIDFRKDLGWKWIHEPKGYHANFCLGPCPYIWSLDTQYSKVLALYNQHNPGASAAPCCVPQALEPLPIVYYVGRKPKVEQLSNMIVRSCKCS
Give just the number in M⁻¹ s⁻¹; leave the unit off.

Given Fab 12.8 (Fab, V domains shown, The mAb was made by linking the Fab to an IgG4 Fc region, so the mAb's chains are named; The heavy chain entry also holds the Fc, which is not in the Fab) VH: QVQLVQSGAEVKKPGASVKVSCKASGYTFTSYWMNWVRQAPGQGLEWMGQIFPALGSTNYNEMFEGRVTMTTDTSTSTAYMELRSLRSDDTAVYYCARGIGNYALDAMDYWGQGTLVTVSS VL: DIQMTQSPSSLSASVGDRVTITCRASESVDWYGNSFMHWYQQKPGKAPKLLIYYASNLESGVPSRFSGSGSGTDFTLTISSLQPEDFATYYCQQNAEDPLTFGGGTKVEIKR , state its recorded kon.
2.6e+07

And the next one, Fab 12.4 (Fab, V domains shown, The mAb was made by linking the Fab to an IgG4 Fc region, so the mAb's chains are named; The heavy chain entry also holds the Fc, which is not in the Fab) VH: QVQLVQSGAEVKKPGASVKVSCKASGYTFTSYWMNWVRQAPGQGLEWMGQIFPALGSTNYGEMFEGRVTMTTDTSTSTAYMELRSLRSDDTAVYYCARGIGNYALDAMDYWGQGTLVTVSS VL: DIQMTQSPSSLSASVGDRVTITCRASESVDWWGNSFMHWYQQKPGKAPKLLIYLASNLESGVPSRFSGSGSGTDFTLTISSLQPEDFATYYCQQNIEDPLTFGGGTKVEIKR ?
3.4e+07

And the next one, Fab 4.17 (Fab, V domains shown, The mAb was made by linking the Fab to an IgG4 Fc region, so the mAb's chains are named; The heavy chain entry also holds the Fc, which is not in the Fab) VH: QVQLVQSGAEVKKPGASVKVSCKASGYTFTSYWMNWVRQAPGQGLEWMGQIFPFSGSTNYNEMFEGRVTMTTDTSTSTAYMELRSLRSDDTAVYYCARGIGNYALDAMDYWGQGTLVTVSS VL: DIQMTQSPSSLSASVGDRVTITCRASESVDFWGNSFMHWYQQKPGKAPKLLIYLASNLESGVPSRFSGSGSGTDFTLTISSLQPEDFATYYCQQNAEDPLTFGGGTKVEIKR ?
2.2e+07

And the next one, Fab 12.7 (Fab, V domains shown, The mAb was made by linking the Fab to an IgG4 Fc region, so the mAb's chains are named; The heavy chain entry also holds the Fc, which is not in the Fab) VH: QVQLVQSGAEVKKPGASVKVSCKASGYTFTSEWMNWVRQAPGQGLEWMGQIFPALGSTNYNEMYEGRVTMTTDTSTSTAYMELRSLRSDDTAVYYCARGIGNYALDAMDYWGQGTLVTVSS VL: DIQMTQSPSSLSASVGDRVTITCRASESVDFYGNSFMHWYQQKPGKAPKLLIYLASNLESGVPSRFSGSGSGTDFTLTISSLQPEDFATYYCQQNIEDPLTFGGGTKVEIKR ?
3.7e+06
